Measured target: T1, recombinant N-terminal extracellular domain of the human PTH1R receptor (human, UniProt Q03431 27-188, limits assumed)
T1 construct: domain: N-terminal extracellular domain; Bought reagent; also called N-ECD PTH1R; PTH1R N-terminal ECD
T1 sequence (looked up): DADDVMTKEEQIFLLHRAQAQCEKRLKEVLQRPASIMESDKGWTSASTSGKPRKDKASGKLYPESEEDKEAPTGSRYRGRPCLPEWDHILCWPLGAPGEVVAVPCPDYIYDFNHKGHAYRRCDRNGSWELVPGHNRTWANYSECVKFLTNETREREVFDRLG
Procedure summary: SPR, IgG captured, ECD injected
Parameter: koff. Scope: all listed entries.
Lab book: enter the figure in s⁻¹, no units written.

A selection of reference data follows.
Lab note: XPA.85.337 (antibody, V domains shown, Light-chain-shuffled variant of XPA.85.017) VH: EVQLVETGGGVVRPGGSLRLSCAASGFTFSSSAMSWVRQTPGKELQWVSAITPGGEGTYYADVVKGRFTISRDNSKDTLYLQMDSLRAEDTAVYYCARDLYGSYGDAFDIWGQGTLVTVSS VL: SYVLTQPPSVSVAPGQTATITCSGDDFGDKYVSWYQQKPGQSPLLVIFQDNERPSGIPERFSGSNSGNTATLTISGTQAMDEADYYCQAWDSNWVFGGGTKVTVL gave koff of 0.00046

Lab note: measured koff of XPA.85.333 (antibody, V domains shown, Light-chain-shuffled variant of XPA.85.012) VH: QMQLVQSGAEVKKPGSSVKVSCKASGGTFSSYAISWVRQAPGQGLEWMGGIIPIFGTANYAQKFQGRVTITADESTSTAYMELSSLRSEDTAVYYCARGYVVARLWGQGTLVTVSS VL: DVVMTQTPLSLSVTPGQPASISCKSSQSLLHIDGKAYLYWYLQKPGQSPHLLIREVSTRFSGVSDRFTGSGSGTDFTLEISRVEAEDVGVYYCMQGLHLPPTFGQGTKVEIK was 0.00054

Form: binder = XPA.85.330 (antibody, V domains shown, IgG; also called Ab330) VH: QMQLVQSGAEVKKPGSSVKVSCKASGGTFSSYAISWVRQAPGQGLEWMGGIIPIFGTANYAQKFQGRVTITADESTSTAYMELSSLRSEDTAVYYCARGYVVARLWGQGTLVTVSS VL: DIVMTQTPLSLSVTPGQPASISCKSSQSLLHIDGNTYLYWYLQRPGQPPQLLIYEISNRFSGVPDRFSGSGSGTDFTLKISRVEAEDVGVYYCMQSLHFPITFGQGTRLEIK ; koff = 9e-05

XPA.85.347 (antibody, V domains shown, Light-chain-shuffled variant of XPA.85.012) VH: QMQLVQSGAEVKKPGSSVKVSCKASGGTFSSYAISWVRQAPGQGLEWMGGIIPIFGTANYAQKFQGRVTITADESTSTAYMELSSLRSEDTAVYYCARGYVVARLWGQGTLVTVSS VL: DIVMTQTPLSLSVTPGQPASISCKSSQSLFHDHGRTHLSWYLQKPGQPPQLLIFEASNRFSGVPDRFSGSGSGTDFTLKISRVEAEDVGVYYCMQGIHLPPAFGGGTKLEIK yielded koff of 0.00077

In plain terms, XPA.85.339 (antibody, V domains shown, Light-chain-shuffled variant of XPA.85.017) VH: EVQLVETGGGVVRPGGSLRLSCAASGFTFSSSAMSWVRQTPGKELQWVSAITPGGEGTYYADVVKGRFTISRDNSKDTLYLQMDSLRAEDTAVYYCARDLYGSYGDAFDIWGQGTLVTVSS VL: SYELTQPPSVSVAPGQTATITCSGDRLGDKFISWYQQKPGQSPLLVIFEDNERPSRIPERFSGSNSGNSATLTISGTQAVDEADYYCQAWDSSWVFGGGTQLTVL has a documented koff of 0.00065

For reference, reported koff for XPA.85.340 (antibody, V domains shown, Light-chain-shuffled variant of XPA.85.017) VH: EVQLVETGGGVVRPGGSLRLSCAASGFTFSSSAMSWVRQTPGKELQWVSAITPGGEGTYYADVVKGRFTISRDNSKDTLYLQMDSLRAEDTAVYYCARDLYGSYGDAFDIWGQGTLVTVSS VL: SYVLTQPPSVSVAPGQTASITCSGDNLGEKFVSWYQQKAGQSPVLVIFEDNKRPSGIPERFAGSNSGNRATLTIRGTQAEDEADYYCQAWDSSWVFGGGTQLTVL stands at 0.0011

Entry under test: XPA.85.329 (antibody, V domains shown, IgG; also called Ab329; XPA.329) VH: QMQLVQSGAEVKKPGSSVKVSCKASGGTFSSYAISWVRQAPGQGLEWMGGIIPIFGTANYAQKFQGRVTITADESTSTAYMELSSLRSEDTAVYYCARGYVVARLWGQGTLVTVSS VL: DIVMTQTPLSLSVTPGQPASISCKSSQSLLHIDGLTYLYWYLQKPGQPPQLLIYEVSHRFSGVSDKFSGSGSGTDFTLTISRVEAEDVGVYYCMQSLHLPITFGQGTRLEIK . Its koff was 7.6e-05

Per the records, this binder ( XPA.85.287 (antibody, V domains shown, also called Ab287) VH: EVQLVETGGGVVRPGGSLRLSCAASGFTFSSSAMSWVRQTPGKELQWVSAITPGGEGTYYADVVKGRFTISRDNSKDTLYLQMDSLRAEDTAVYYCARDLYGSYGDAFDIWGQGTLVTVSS VL: SYVLTQPPSVSVAPGQTARITCSGDKLGDRYVSWYQQKPGQSPVLVMFEDTGRPAGIPERFSGSNSGNTATLTISGTQAEDEADYYCQAWGTSWVFGGGTQLTVL ) has koff equal to 0.00036

Next:
Data point: XPA.85.288 (antibody, V domains shown, also called Ab288) VH: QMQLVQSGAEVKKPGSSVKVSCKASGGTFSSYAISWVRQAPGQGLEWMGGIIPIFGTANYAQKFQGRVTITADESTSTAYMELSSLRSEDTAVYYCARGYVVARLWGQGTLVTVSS VL: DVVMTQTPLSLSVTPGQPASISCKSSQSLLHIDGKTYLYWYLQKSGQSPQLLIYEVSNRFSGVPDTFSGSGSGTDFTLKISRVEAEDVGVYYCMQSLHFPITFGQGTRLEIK ; koff = 0.00014

Lab book: koff of XPA.85.334 (antibody, V domains shown, Light-chain-shuffled variant of XPA.85.012) VH: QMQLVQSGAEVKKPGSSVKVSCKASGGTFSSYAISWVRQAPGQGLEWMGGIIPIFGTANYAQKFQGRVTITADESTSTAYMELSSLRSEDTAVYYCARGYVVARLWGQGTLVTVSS VL: DIVMTQTPLSLSVTPGQPASITCKSSQSLLHIDGKTYLYWFLQKPGQPPQLLIYEVSNRFSGVPDRFSGTGSGTDFTLKISRVEAEDVGVYYCMQSLHFPITFGPGTRLEIK noted as 0.00021

The values you see were collected from patent US20200317817A1.
